Items are presented alongside their recorded fold change (FC).
- Test system: Caco-2
- assay.text: Permeability from apical to basolateral side of human Caco-2 cell monolayers assessed as increase in lucifer yellow flux at 7.0 mM relative to untreated control
- Type: ADME, cell-based
- conditions.used: caco-2, 7000 µM
Where a SMILES comes first, the peptide text is derived from it. [ ]: non-standard residue; d: D form. Nva = CCC[C@H](N)C(=O)O
Write the number on its own, no unit after it.

INSERT INTO measurements (compound, property, assay_result) VALUES
  ('CCC[C@H](NC(=O)[C@@H](N)Cc1ccccc1)C(=O)N[C@H](C(=O)NCC(=O)N[C@@H](CCCNC(=N)N)C(=O)N[C@@H](CC(C)C)C(=O)O)[C@@H](C)CC (H-F[Nva]IGRL-OH)', 'fold change (FC)', 1.6);

Give its fold change (FC) value. Item: CC[C@H](C)[C@H](NC(=O)[C@H](CCC(N)=O)NC(=O)[C@@H](N)Cc1ccccc1)C(=O)NCC(=O)N[C@@H](CCCNC(=N)N)C(=O)N[C@@H](CC(C)C)C(=O)O (H-FQIGRL-OH)
1.5

Give its fold change (FC) value. Item: CC[C@H](C)[C@H](NC(=O)[C@H](CCCNC(=N)N)NC(=O)[C@@H](N)Cc1ccccc1)C(=O)NCC(=O)N[C@@H](CCCNC(=N)N)C(=O)N[C@@H](CC(C)C)C(=O)O (H-FRIGRL-OH)
2.2

---

- Test system: Caco-2
- assay.text: Effect on integrity in human Caco-2 cell monolayers assessed as transepithelial resistance by epithelial voltohmmeter relative to control
- Format: ADME, cell-based
- Parameters: concentration or dose not given beside the values
Where a SMILES comes first, the peptide text is derived from it. [ ]: non-standard residue; d: D form. 2Pal = N[C@@H](Cc1ccccn1)C(=O)O; Cha = N[C@@H](CC1CCCCC1)C(=O)O; Dab = NCC[C@H](N)C(=O)O
property: Activity (%)
Supply the numeric figure in %, leaving out any unit text.

The following compounds have reported results that may help.
INSERT INTO assay_data (compound, property, assay_result) VALUES
  ('CC[C@H](C)[C@H](NC(=O)[C@H](CC1CCCCC1)NC(=O)[C@@H](N)Cc1ccccc1)C(=O)NCC(=O)N[C@@H](CCCNC(=N)N)C(=O)N[C@@H](CC(C)C)C(=O)O (H-F[Cha]IGRL-OH)', 'Activity', 68),
  ('CC[C@H](C)[C@H](NC(=O)[C@H](Cc1ccccn1)NC(=O)[C@@H](N)Cc1ccccc1)C(=O)NCC(=O)N[C@@H](CCCNC(=N)N)C(=O)N[C@@H](CC(C)C)C(=O)O (H-F[2Pal]IGRL-OH)', 'Activity', 148);

Consider the record given below.
Give its Activity value. Item: CC[C@H](C)[C@H](NC(=O)[C@H](CCN)NC(=O)[C@@H](N)Cc1ccccc1)C(=O)NCC(=O)N[C@@H](CCCNC(=N)N)C(=O)N[C@@H](CC(C)C)C(=O)O (H-F[Dab]IGRL-OH)
94

---

- System: Caco-2
- assay.text: Effect on integrity in human Caco-2 cell monolayers assessed as transepithelial resistance by epithelial voltohmmeter relative to control
- Type: ADME, cell-based
- Set-up: concentration or dose not given beside the values
Where a SMILES comes first, the peptide text is derived from it. Bridges are numbered along the chain shown (N, C = ends). Roman numbers before positions name the chains, in order. [ ]: non-standard residue; d: D form. Phe(4-CN) = N#Cc1ccc(C[C@H](N)C(=O)O)cc1
Items are presented alongside their recorded Activity.
Answer format: number, then unit.

The following molecules have reported results that may help.
INSERT INTO measurements (molecule, assay_result) VALUES
  ('CC[C@H](C)[C@H](NC(=O)[C@H](Cc1ccc(C#N)cc1)NC(=O)[C@@H](N)Cc1ccccc1)C(=O)NCC(=O)N[C@@H](CCCNC(=N)N)C(=O)N[C@@H](CC(C)C)C(=O)O (H-F[Phe(4-CN)]IGRL-OH)', '118%'),
  ('CC[C@H](C)[C@H](NC(=O)[C@H](CO)NC(=O)[C@@H](N)Cc1ccccc1)C(=O)NCC(=O)N[C@@H](CCCNC(=N)N)C(=O)N[C@@H](CC(C)C)C(=O)O (H-FSIGRL-OH)', '94%'),
  ('CC[C@H](C)[C@H](NC(=O)[C@H](CS)NC(=O)[C@@H](N)Cc1ccccc1)C(=O)NCC(=O)O (H-FCIG-OH)', '103%');

Consider the record given below.
Give its Activity value. Item: CC[C@H](C)[C@H](NC(=O)[C@H](CSSC[C@H](NC(=O)[C@@H](N)Cc1ccccc1)C(=O)N[C@H](C(=O)NCC(=O)N[C@@H](CCCNC(=N)N)C(=O)N[C@@H](CC(C)C)C(=O)O)[C@@H](C)CC)NC(=O)[C@@H](N)Cc1ccccc1)C(=O)NCC(=O)N[C@@H](CCCNC(=N)N)C(=O)N[C@@H](CC(C)C)C(=O)O (I: H-FCIGRL-OH / II: H-FCIGRL-OH; disulfide I:2-II:2)
137%
